Sourced from patent US11884649B2

- experimental-system: IRE1α* (Homo sapiens)
reported-metric: Ki
# output: numeric value plus its unit

Qu. Param readout = Ki; param system = IRE1α* (Homo sapiens); param query = N[C@H]1CC[C@H](Nc2nccc(-c3cccnc3Oc3ccc(NS(=O)(=O)C4CC4)c4ccccc34)n2)CC1 [compound 5] ; response: value
Ans. 140 nM

###

Would you kindly list IC50 for each of these molecules?
- experimental-system: IRE1α* (Homo sapiens, UniProt O75460)
- Construct: human IRE1α (residues 547-977, IRE1α*) was expressed in SF9 insect cells; His6 (N); made in house; host or cells: Sf9 insect cells (Bac-to-Bac baculovirus)
- Sequence (O75460 547-977): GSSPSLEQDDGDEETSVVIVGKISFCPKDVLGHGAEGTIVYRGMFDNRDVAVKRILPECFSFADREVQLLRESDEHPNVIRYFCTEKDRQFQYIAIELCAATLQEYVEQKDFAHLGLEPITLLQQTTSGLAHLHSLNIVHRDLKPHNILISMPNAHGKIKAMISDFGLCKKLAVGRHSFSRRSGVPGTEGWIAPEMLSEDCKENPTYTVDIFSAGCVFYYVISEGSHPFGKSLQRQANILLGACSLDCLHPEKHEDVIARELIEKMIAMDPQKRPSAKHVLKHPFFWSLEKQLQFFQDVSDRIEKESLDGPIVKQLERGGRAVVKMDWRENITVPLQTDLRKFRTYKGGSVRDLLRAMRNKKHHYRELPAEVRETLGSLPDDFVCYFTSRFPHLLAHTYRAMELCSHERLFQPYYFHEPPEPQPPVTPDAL
- assay-text: In vitro kinase activity assay (IRE1α kinase inhibition)
- Format: biochemical
- applied-conditions: IRE1α kinase inhibition; read-out: IC50 IRE1a
Give bare numbers, in nM.

Please review the following examples before continuing.
# molecule, measurement-unit, IC50
data = [
    ("Cc1c(F)c(NS(=O)(=O)CC(F)(F)F)c2ccccc2c1Oc1ncccc1-c1ccnc(N[C@@H]2CNC[C@@H](F)C2)n1 [LBC-0000399]", "nM", 5.1),
    ("Cc1cc(NS(=O)(=O)C2CC2)c2ccccc2c1Oc1ncccc1-c1ccnc(N[C@@H]2CNC[C@@H](F)C2)n1 [LBC-412]", "nM", 13),
    ("O=S(=O)(CC(F)(F)F)Nc1ccc(Oc2ncccc2-c2ccnc(N[C@H]3CCCNC3)n2)c2ccccc12 (stereo in doubt) [PAIR1]", "nM", 25),
]

Shifting focus to the molecule that follows.
Qu. What is its IC50 for IRE1α* (Homo sapiens, UniProt O75460)? Entry: Cc1cc(NS(=O)(=O)CC2CC2)c2ccccc2c1Oc1ncccc1-c1ccnc(N[C@@H]2CNC[C@@H](F)C2)n1 [LBC-409]
Ans. 7.4
